Target: human CD33 P19W (human, UniProt P20138 18-364)
Sequence (P20138 18-364 P19W limits assumed): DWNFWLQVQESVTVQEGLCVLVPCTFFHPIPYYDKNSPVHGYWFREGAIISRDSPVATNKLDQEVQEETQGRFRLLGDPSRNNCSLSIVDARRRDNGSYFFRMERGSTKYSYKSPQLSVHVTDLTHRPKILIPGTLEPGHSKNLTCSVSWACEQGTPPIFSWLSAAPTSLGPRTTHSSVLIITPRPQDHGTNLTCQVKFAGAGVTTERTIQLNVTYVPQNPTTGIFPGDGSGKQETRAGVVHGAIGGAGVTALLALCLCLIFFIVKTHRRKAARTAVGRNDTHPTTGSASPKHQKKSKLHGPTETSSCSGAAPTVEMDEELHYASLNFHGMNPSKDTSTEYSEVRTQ
Test: flow cytometry, mutant on cells, IgG
RESULT_TYPE: Mean % WT Binding (% WT binding)
Numeric answer only, unit % WT binding assumed.

Refmab #3 (antibody, human IgG1, V domains shown, Tested in IgG format; human IgG1 Fc silent (PG-LALA)) VH: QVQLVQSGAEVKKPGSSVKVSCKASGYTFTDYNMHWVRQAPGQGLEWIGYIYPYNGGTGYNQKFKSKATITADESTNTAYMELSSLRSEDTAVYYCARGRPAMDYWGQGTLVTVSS VL: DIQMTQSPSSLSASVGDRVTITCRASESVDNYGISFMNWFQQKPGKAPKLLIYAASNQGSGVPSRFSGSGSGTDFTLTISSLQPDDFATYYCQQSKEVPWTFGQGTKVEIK: 71.2
Refmab #1 (antibody, human IgG1, V domains shown, Tested in IgG format; human IgG1 (Absolute Antibody hP67.6, Cat. No. Ab00283-10.0); also called hP67.6) VH: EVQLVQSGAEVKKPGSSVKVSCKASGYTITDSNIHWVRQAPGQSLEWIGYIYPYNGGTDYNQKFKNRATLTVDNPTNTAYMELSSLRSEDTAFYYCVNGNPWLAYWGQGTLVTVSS VL: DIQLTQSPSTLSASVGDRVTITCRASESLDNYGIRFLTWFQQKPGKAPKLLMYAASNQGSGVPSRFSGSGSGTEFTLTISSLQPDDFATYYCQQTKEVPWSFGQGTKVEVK: 73.8
Refmab #4 (antibody, human IgG1, V domains shown, Tested in IgG format; human IgG1 Fc silent (PG-LALA)) VH: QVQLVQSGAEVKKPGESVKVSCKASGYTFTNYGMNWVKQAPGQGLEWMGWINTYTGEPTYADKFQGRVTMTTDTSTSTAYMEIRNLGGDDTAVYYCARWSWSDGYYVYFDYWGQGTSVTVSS VL: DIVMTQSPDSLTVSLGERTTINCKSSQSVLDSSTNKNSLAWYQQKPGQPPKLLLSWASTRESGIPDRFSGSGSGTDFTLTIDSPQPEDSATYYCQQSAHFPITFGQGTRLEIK: 82.8

Now consider a different binder.
Q: Fill in: Mean % WT Binding of Refmab #2 (antibody, human IgG1, V domains shown, Tested in IgG format; human IgG1 Fc silent (PG-LALA)) VH: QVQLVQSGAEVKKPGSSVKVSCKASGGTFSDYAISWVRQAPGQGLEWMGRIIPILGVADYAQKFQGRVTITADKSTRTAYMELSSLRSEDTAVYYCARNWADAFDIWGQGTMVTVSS VL: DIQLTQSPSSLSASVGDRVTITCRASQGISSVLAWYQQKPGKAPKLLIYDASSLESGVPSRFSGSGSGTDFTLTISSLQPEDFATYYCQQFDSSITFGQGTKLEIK is ___
Ans: 88.3

Provenance of the data: patent US20260242735A1
